# Test system: HCT116 (colon)
# protocol description: Cell growth inhibition assay (SRB), HCT116
# Assay type: cell-based
# conditions: Homo sapiens, HCT-116; HCT116; SRB method, 96 hours incubation; read-out: Inhibition of cell growth (IC50, μM) by quinoxaline-piperazine compounds against human cancer cell lines: HCT116
reported property: IC50 (µM)

A. COc1cc(OC)cc(N2CCN(C(=O)Nc3nc4cc(C)ccc4nc3OC)CC2)c1
B. COc1cc(OC)cc(N2CCN(C(=O)Nc3nc4cc(Cl)ccc4nc3OC)CC2)c1
Select one. Lower IC50: A or B Which one? Tell me its label.
A

###

# System: MCF-7 (breast, hormone-dependent)
# protocol description: Cell growth inhibition assay (SRB), MCF-7
# Format: cell-based
# conditions: Homo sapiens, MCF7; SRB method, 96 hours incubation, MCF-7 (breast, hormone-dependent); read-out: IC50, MCF-7
reported property: IC50 (nM)

compound string: COc1nc2cc(F)ccc2nc1NC(=O)N1CCN(c2cc(C)cc(C)c2)CC1
reported property: IC50
readout value: 360
--
compound string: COc1cc(OC)cc(N2CCN(C(=O)Nc3nc4ccc(Cl)cc4nc3OC)CC2)c1
reported property: IC50
readout value: 210
--
compound string: COc1nc2cc(Cl)ccc2nc1NC(=O)N1CCN(c2cccc(Cl)c2)CC1
reported property: IC50
readout value: 600
--
compound string: COc1ccc2nc(NC(=O)N3CCN(c4cc(C)cc(C)c4)CC3)c(OC)nc2c1
reported property: IC50
readout value: 210

a. COc1nc2cc(C)ccc2nc1NC(=O)N1CCN(c2cc(C)cc(C)c2)CC1
b. COc1nc2cc(Cl)ccc2nc1NC(=O)N1CCN(c2cc(C)cc(C)c2)CC1
Between the entries labelled a and b , which has a larger IC50 value on record? Which one? Tell me its label.
b
(b: 450 nM, a: 210 nM)

###

# System: PANC-1 (pancreas)
# protocol description: Cell growth inhibition assay (SRB), PANC-1
# Format: cell-based, human
# conditions: SRB method, 96 hours incubation, PANC-1 (pancreas); read-out: IC50, PANC-1
The entries below come with measured IC50 values attached.

For orientation, consider the following solved cases.
compound: COc1cc2nc(NC(=O)N3CCN(c4cccc(C(F)(F)F)c4)CC3)c(OC)nc2cc1OC [Compound 194]
IC50: 1400 nM

compound: COc1nc2cc(Cl)ccc2nc1NC(=O)N1CCN(c2cccc(C(F)(F)F)c2)CC1 [Compound 116]
IC50: > 1000 nM

compound: COc1ccc2nc(NC(=O)N3CCN(c4cccc(C(F)(F)F)c4)CC3)c(OC)nc2c1 [Compound 158]
IC50: > 1000 nM

# input for lookup
Consider the compound shown here: COc1nc2cc(F)ccc2nc1NC(=O)N1CCN(c2cccc(C(F)(F)F)c2)CC1 [Compound 95] What is its recorded IC50?
> 1000 nM

###

# Test system: A549 (lung)
# protocol description: Cell growth inhibition assay (SRB), A549
# Assay type: cell-based
# conditions: Homo sapiens; SRB method, 96 hours incubation, A549 (lung); read-out: IC50, A549
reported property: IC50 (nM)

For orientation, consider the following solved cases.
compound string: COc1nc2cc(F)ccc2nc1NC(=O)N1CCN(c2cc(C)cc(C)c2)CC1
reported property: IC50
readout value: 420

compound string: COc1nc2cc(C)ccc2nc1NC(=O)N1CCN(c2cc(C)cc(C)c2)CC1
reported property: IC50
readout value: 210

compound string: COc1cc(OC)cc(N2CCN(C(=O)Nc3nc4ccc(C)cc4nc3OC)CC2)c1
reported property: IC50
readout value: 240

compound string: COc1cc(OC)cc(N2CCN(C(=O)Nc3nc4ccc(Cl)cc4nc3OC)CC2)c1
reported property: IC50
readout value: 240

compound string: COc1nc2cc(Cl)ccc2nc1NC(=O)N1CCN(c2cccc(Cl)c2)CC1
reported property: IC50
readout value: 750

a. COc1ccc2nc(NC(=O)N3CCN(c4cc(C)cc(C)c4)CC3)c(OC)nc2c1
b. COc1nc2cc(Cl)ccc2nc1NC(=O)N1CCN(c2cc(C)cc(C)c2)CC1
Select one. Lower IC50: a or b Which one? Tell me its label.
b

###

# Tested on: Caki-1 (kidney)
# protocol description: Cell growth inhibition assay (SRB), Caki-1
# Assay type: cell-based
# conditions: Homo sapiens; SRB method, 96 hours incubation, Caki-1 (kidney); read-out: IC50, Caki-1
reported property: pIC50
Recall that pIC50 is obtained by taking minus log10 of the concentration measured in molar.

Consider the compound shown here: COc1nc2cc(C)ccc2nc1NC(=O)N1CCN(c2cc(C)cc(C)c2)CC1 What is its recorded pIC50?
6.89

Try this compound too: COc1nc2cc(Cl)ccc2nc1NC(=O)N1CCN(c2cccc(Cl)c2)CC1
6.40

Try this compound too: COc1cc(OC)cc(N2CCN(C(=O)Nc3nc4ccc(Cl)cc4nc3OC)CC2)c1
6.74

###

# Tested on: MDA-MB-231 (breast)
# protocol description: Cell growth inhibition assay (SRB), MDA-MB-231
# Assay type: cell-based, human
# conditions: Homo sapiens; MDA-MB-231; SRB method, 96 hours incubation; read-out: Inhibition of cell growth (IC50, μM) by quinoxaline-piperazine compounds against human cancer cell lines: MDA-MB-231
reported property: IC50 (µM)

For orientation, consider the following solved cases.
compound string: COc1nc2ccc(Cl)cc2nc1NC(=O)N1CCN(c2cccc(Cl)c2)CC1
unit of measure: µM
readout value: 0.17

compound string: COc1nc2ccc(C)cc2nc1NC(=O)N1CCN(c2cccc(Cl)c2)CC1
unit of measure: µM
readout value: 0.14

compound string: COc1cc(OC)cc(N2CCN(C(=O)Nc3nc4cc(C)ccc4nc3OC)CC2)c1
unit of measure: µM
readout value: 0.032

compound string: COc1nc2cc(F)ccc2nc1NC(=O)N1CCN(c2cccc(C)c2)CC1
unit of measure: µM
readout value: 0.21

compound string: COc1ccc2nc(OC)c(NC(=O)N3CCN(c4cccc(C)c4)CC3)nc2c1
unit of measure: µM
readout value: 0.4

compound string: COc1cccc(N2CCN(C(=O)Nc3nc4cc(Cl)ccc4nc3OC)CC2)c1
unit of measure: µM
readout value: 0.41

compound string: COc1cc(OC)cc(N2CCN(C(=O)Nc3nc4cc(Cl)ccc4nc3OC)CC2)c1
unit of measure: µM
readout value: 0.05

compound string: COc1cc(OC)cc(N2CCN(C(=O)Nc3nc4cc(F)ccc4nc3OC)CC2)c1
unit of measure: µM
readout value: 0.012

compound string: COc1nc2ccc(C)cc2nc1NC(=O)N1CCN(c2cccc(C)c2)CC1
unit of measure: µM
readout value: 0.22

a. COc1nc2ccc(Cl)cc2nc1NC(=O)N1CCN(c2cccc(C)c2)CC1
b. COc1cccc(N2CCN(C(=O)Nc3nc4cc(C)ccc4nc3OC)CC2)c1
Between the entries labelled a and b , which has a larger IC50 value on record? Which one? Tell me its label.
b

###

# System: HEK293 (human embryonic kidney)
# protocol description: Cell growth inhibition assay (SRB), HEK293
# Format: cell-based
# conditions: Homo sapiens; Hek293; SRB method, 96 hours incubation; read-out: Inhibition of cell growth (IC50, μM) by quinoxaline-piperazine compounds against human cancer cell lines: Hek293
reported property: IC50 (µM)
Please state the figure in µM; there is no need to write the unit.

Consider the molecule shown here: COc1cccc(N2CCN(C(=O)Nc3nc4cc(C)ccc4nc3OC)CC2)c1 What is its recorded IC50?
0.5

###

# System: MDA-MB-231 (breast)
# protocol description: Cell growth inhibition assay (SRB), MDA-MB-231
# Assay type: cell-based, human
# conditions: MDA-MB-231; SRB method, 96 hours incubation; read-out: Inhibition of cell growth (IC50, μM) by quinoxaline-piperazine compounds against human cancer cell lines: MDA-MB-231
reported property: IC50 (µM)

1. COc1nc2ccc(F)cc2nc1NC(=O)N1CCN(c2cccc(C(F)(F)F)c2)CC1 [Compound 11]
2. COc1nc2ccc(Cl)cc2nc1NC(=O)N1CCN(c2cccc(C(F)(F)F)c2)CC1 [Compound 32]
Between the entries labelled 1 and 2 , which has a larger IC50 value on record? Which one? Tell me its label.
2

###

# Tested on: PC3 (prostate)
# protocol description: Cell growth inhibition assay (SRB), PC3
# Type: cell-based
# conditions: Homo sapiens; SRB method, 96 hours incubation, PC3 (prostate); read-out: IC50, PC3
reported property: IC50 (nM)

compound string: COc1cc(OC)cc(N2CCN(C(=O)Nc3nc4ccc(Cl)cc4nc3OC)CC2)c1
IC50 (nM): 270

compound string: COc1nc2cc(Cl)ccc2nc1NC(=O)N1CCN(c2cc(C)cc(C)c2)CC1
IC50 (nM): 620

compound string: COc1nc2cc(F)ccc2nc1NC(=O)N1CCN(c2cc(C)cc(C)c2)CC1
IC50 (nM): 700

compound string: COc1cc(OC)cc(N2CCN(C(=O)Nc3nc4ccc(C)cc4nc3OC)CC2)c1
IC50 (nM): 350

I. COc1nc2cc(C)ccc2nc1NC(=O)N1CCN(c2cc(C)cc(C)c2)CC1
II. COc1ccc2nc(NC(=O)N3CCN(c4cc(C)cc(C)c4)CC3)c(OC)nc2c1
Select one. Lower IC50: I or II Which one? Tell me its label.
I
(I: 250 nM, II: 580 nM)

These measurements were taken from patent US8598173B2.
